Molecular target: T1, mouse transferrin receptor (mTfR) fused to EGFP, on CHO cells (mouse, UniProt Q62351 1-763)
T1 construct: whole, on cells; also called mouse TfR; CHO-mTfR-EGFP; not shown: EGFP
T1 sequence (Q62351 whole entry, the tested form may be a part): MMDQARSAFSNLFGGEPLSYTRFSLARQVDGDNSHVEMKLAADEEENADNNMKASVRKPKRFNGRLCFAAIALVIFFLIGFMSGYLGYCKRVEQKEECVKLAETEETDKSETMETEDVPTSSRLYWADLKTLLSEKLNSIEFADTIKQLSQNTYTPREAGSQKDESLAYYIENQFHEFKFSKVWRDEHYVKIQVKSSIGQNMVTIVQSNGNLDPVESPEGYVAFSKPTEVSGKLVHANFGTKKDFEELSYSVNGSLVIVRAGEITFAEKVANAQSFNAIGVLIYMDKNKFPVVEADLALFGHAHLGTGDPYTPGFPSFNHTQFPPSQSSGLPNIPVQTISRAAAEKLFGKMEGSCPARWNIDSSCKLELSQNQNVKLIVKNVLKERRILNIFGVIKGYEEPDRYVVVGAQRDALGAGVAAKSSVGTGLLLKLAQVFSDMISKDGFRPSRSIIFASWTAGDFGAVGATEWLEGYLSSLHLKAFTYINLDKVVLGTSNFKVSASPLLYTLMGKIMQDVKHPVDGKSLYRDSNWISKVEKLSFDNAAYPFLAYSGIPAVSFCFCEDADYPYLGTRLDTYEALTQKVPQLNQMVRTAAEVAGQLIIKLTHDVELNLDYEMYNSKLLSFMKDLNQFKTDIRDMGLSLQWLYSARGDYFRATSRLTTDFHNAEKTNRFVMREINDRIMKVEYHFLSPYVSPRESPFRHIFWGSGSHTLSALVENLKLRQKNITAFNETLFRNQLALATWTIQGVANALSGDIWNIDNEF
Experiment: apparent Kd, flow cytometry, CHO cells
# if measured Kd < 50 nM: 1 (yes)  # else: 0 (no)

Answered cases to consult:
Would you kindly verify if Kd of B8^V9 (VHH) VHH: EVQLVESGGGVVQPGGSLRLSCAASGEIFSINFMRWYRQAPGKQREWVAGFTRDGSKNYPDSAKGRFTISRDNAKNTVYLQIDSLKPEDTAVYYCYMLDTWGQGTQVTVSS is strictly less than 50 nM? 1 (yes)

Find out if reported Kd for B8^V32 (VHH) VHH: EVQLVESGGGVVQPGGSLRLSCAASGEIRSINFMRWYRQAPGKQREWVAGFTRDGSTNYPDSAKGRFTISRDNAKNTVYLQIDSLKPEDTAVYYCYMLDTWGQGTQVTVSS is less than 50 nM 0 (no)

hey, is Kd for B8^V7 (VHH) VHH: EVQLVESGGGVVQPGGSLRLSCAASGEIFSINFMRWYRQAPGKQREWVAGFTRDGYTNYPDSAKGRFTISRDNAKNTVYLQIDSLKPEDTAVYYCYMLDTWGQGTQVTVSS lower than 50 nM or not? 1 (yes)

is_below(Kd, 50 nM) for B8^V27 (VHH) VHH: EVQLVESGGGVVQPGGSLRLSCAASGEIFSINFMRWYRQAPGKQREWVAGFTRDGSTVYPDSAKGRFTISRDNAKNTVYLQIDSLKPEDTAVYYCYMLDTWGQGTQVTVSS ? 0 (no)

Field: below-cutoff. Rule: recorded Kd strictly less than 50 nM. Subject: B8^V28 (VHH) VHH: EVQLVESGGGVVQPGGSLRLSCAASGEIFSINFMRWYRQAPGKQREWVAGFTRDGSTFYPDSAKGRFTISRDNAKNTVYLQIDSLKPEDTAVYYCYMLDTWGQGTQVTVSS 0 (no)

Determine whether this binder shows Kd lower than 50 nM (ties excluded): VHH A13 (C5^V13) (VHH) VHH: EVQLVESGGGVVQPGGSLKLSCVASGTDFSINFIRWYRQAPGKQREFVAGFSATGNTNYADSMKGRFTISRDNTKNAVYLQIDSLKPEDTAVYYCYMLDKWGQGTQVTVSS 0 (no)

Dear reviewer, please state whether VHH A9 (C5^V9) (VHH) VHH: EVQLVESGGGVVQPGGSLKLSCVASGTDFSINFIRWYRQAPGKQREFVAGFTATGNTNYADSMKGRFTISRDNTKNAVYLQIDSLKPEDTAVYYCYMLDAWGQGTQVTVSS has Kd strictly beneath 50 nM. 1 (yes)

Please find the next binder below.
Confirm or reject: Kd of C5^V29 (VHH) VHH: EVQLVESGGGVVQPGGSLKLSCVASGADFSINFIRWYRQAPGKQREFVAGFTATGHTNYADSMKGRFTISRDNTKNAVYLQIDSLKPEDTAVYYCYMLDKWGQGTQVTVSS lies strictly below 50 nM 0 (no)
